Measurement notes: Lipophilicity by reversed-phase thin-layer chromatography (RPTLC, RP-18W/UV254 plates)
Assay type: physicochemical
Measurement parameters: methanol-water mobile phase, φ = 0.34 - 0.56 v/v, room temperature
Readout kind: m (slope of RM vs φ)

Problem: For the compound N#Cc1ccc(NC(=O)CCl)cc1 , what m (slope of RM vs φ) is on record?
Solution: -2.749 (±0.086)

Problem: For the compound Cc1ccc(NC(=O)CCl)cc1 , what m (slope of RM vs φ) is on record?
Solution: -2.673 (±0.146)

Problem: For the compound CC(=O)c1ccc(NC(=O)CCl)cc1 , what m (slope of RM vs φ) is on record?
Solution: -2.549 (±0.263)

Problem: For the compound N#Cc1cccc(NC(=O)CCl)c1 , what m (slope of RM vs φ) is on record?
Solution: -2.726 (±0.182)

Problem: For the compound O=C(CCl)Nc1cccc(Br)c1 , what m (slope of RM vs φ) is on record?
Solution: -3.151 (±0.251)

Problem: For the compound O=C(CCl)Nc1ccc(F)cc1 , what m (slope of RM vs φ) is on record?
Solution: -2.486 (±0.192)

Problem: For the compound O=C(CCl)Nc1ccc(Cl)cc1 , what m (slope of RM vs φ) is on record?
Solution: -2.944 (±0.306)

Problem: For the compound O=C(CCl)Nc1ccc(Br)cc1 , what m (slope of RM vs φ) is on record?
Solution: -3.137 (±0.218)

Problem: For the compound O=C(CCl)Nc1ccc(O)cc1 , what m (slope of RM vs φ) is on record?
Solution: -3.032 (±0.154)

Problem: For the compound O=C(CCl)Nc1ccc(I)cc1 , what m (slope of RM vs φ) is on record?
Solution: -3.282 (±0.266)

Problem: For the compound COc1ccc(NC(=O)CCl)cc1 , what m (slope of RM vs φ) is on record?
Solution: -2.478 (±0.265)

Problem: For the compound O=C(CCl)Nc1ccccc1 , what m (slope of RM vs φ) is on record?
Solution: -2.309 (±0.268)
